- Tested on: B16-F10 cells
- Method: MTT cytotoxicity assay, B16-F10
- Assay type: cell-based
- Measurement context: Mus musculus, Table 1, agent alone, read-out: IC50
Record form. Attribute: IC50. Fill in for each entry.
Answers are plain numbers, in µM.

COC1CCN(C(=O)c2cc(Cc3n[nH]c(=O)c4ccccc34)ccc2F)CC1 [PARP1i, AZD 2461, reference compound]: 29.9

// below: IC50 requested for another compound
Prompt line: Item O=C1CC(c2ccccc2O)Oc2ccccc21 (centres unmarked) [2HF, 2′-hydroxyflavanone] has what recorded IC50?
Response line: 42
